# assay-explanation: growth inhibition of DIPG glioma cells, dose response, cell-based, JHH-DIPG-1, MIPE4.0, CellTiter-Glo, qHTS (AID 1347062);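 as to AC50: cells exposed to compound for two days before readout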
# measurement-setup: JHH-DIPG-1 viability, CellTiter-Glo ATP luminescence
Records with an inconclusive call do not appear. Active and inactive are the calls of the source. The limit is not given here; nearly all actives have AC50 up to about 27 µM.
Pick one and only one: active, inactive

For C[N+](C)(C)CC(=O)O , what call appears in the results of this test?
inactive

// outcome(item) with item = O=c1[nH]c2ccccc2n1CCCN1CCC(n2c(=O)[nH]c3cc(Cl)ccc32)CC1
inactive

Write down the call the test reported for this molecule. Item: N=C1NC(=O)N2CC12 (configuration not stated)
active

What is the recorded call for this molecule in the test? CCc1c(C(=O)C(N)=O)c2c(OCC(=O)O)cccc2n1Cc1ccccc1
inactive

// outcome(item) with item = CC1(C)CC(O)CC(C)(C)N1O
inactive

Recorded test call requested for COC[C@@H](NC(C)=O)C(=O)NCc1ccccc1
inactive

Check the results log: what was the call for CCCN1CCO[C@@H]2c3cc(O)ccc3OC[C@H]21 ?
inactive

Look up the recorded call for CN(C)NC(=O)CCC(=O)O in this test.
inactive

Please indicate how the test categorized C[C@H]1CCC/C=C/C2C[C@H](O)C[C@H]2[C@H](O)/C=C/C(=O)O1 (some centres not stated) .
inactive

Answer briefly: the call reported for COc1ccc(C(=O)c2c(C)n(CCN3CCOCC3)c3ccccc23)cc1 in this assay.
inactive

Just curious, what result did C#CCN(C)[C@H](C)Cc1ccccc1 get here?
inactive

Hi, sorry to bother you, what did the test record for C=C1C[C@@H]2[C@H](CC[C@]3(C)C(=O)CC[C@@H]23)[C@@]2(C)C=CC(=O)C=C12 ?
inactive

Hey, just so you know, these numbers are from PubChem BioAssay.
